Molecular target: TRPV4 channel receptors (Bos taurus, UniProt A0A8F4X677)
Construct: obtained using this method in bovine articular chondrocytes; endogenous in cells
Sequence (A0A8F4X677 1-871): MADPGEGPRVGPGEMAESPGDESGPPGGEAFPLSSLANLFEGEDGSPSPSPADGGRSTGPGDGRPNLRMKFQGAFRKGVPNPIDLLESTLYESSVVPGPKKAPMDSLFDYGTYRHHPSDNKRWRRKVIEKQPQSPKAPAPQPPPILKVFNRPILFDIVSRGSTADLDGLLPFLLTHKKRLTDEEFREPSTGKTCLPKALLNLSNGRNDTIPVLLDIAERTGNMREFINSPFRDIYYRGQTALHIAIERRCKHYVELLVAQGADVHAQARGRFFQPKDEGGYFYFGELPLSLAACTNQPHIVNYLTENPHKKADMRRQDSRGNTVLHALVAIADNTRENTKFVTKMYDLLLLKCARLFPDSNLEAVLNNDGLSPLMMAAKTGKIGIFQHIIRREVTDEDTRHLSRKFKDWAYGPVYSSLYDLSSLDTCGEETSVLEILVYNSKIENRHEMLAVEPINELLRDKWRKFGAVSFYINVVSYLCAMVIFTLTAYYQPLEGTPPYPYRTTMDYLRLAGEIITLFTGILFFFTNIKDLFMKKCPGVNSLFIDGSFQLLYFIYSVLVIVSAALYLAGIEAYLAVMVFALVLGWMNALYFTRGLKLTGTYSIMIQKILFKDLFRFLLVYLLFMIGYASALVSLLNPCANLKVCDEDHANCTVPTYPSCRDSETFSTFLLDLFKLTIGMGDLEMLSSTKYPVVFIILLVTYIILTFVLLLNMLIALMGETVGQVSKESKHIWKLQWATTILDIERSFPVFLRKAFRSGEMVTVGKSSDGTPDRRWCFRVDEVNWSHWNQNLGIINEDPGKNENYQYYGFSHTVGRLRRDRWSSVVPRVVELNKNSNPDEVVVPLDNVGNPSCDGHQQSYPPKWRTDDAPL
Assay: Ca2+ influx by Fura-2 fluorescence on FlexStation in bovine articular chondrocytes
EC50 values for the compounds below.

CC(C)C[C@H](NC(=O)c1cc2ccccc2s1)C(=O)N1CCN(C(=O)CNS(=O)(=O)c2ccc(Cl)cc2Cl)CC1 : 20 to 89 nM
CC(C)C[C@H](NC(=O)c1cc2ccccc2s1)C(=O)N1CCN(C(=O)[C@H](C)NS(=O)(=O)c2ccc(Cl)cc2Cl)CC1 : 0.1 to 19 nM

Shift focus to the following entry.
Per the record, "CC(C)C[C@H](NC(=O)c1cc2ccccc2s1)C(=O)N1CCN(CCNS(=O)(=O)c2ccc(Cl)cc2Cl)CC1" has EC50 of 90 to 5010 nM
